# experimental.details: P-glycoprotein substrates identified in KB-8-5-11 adenocarcinoma cell line, qHTS therapeutic library screen (AID 1346987); also: nearly all actives have a fitted effect of over 65% in size
# protocol.conditions: KB-8-5-11 (P-gp overexpressing) viability, CellTiter-Glo, 72 h; series mostly up to 44.5 µM
Results filed as inconclusive are left out. Active and inactive are the calls of the source. Calls follow the shape of the dose curve; as a rule, active = well fitted inhibition curve with a large enough effect; inconclusive = small, poorly fitted or top-dose-only effect; inactive = flat fitted curve, though single readings scatter.

| compound | outcome |
| --- | --- |
| CC(C)(Sc1cc(C(C)(C)C)c(O)c(C(C)(C)C)c1)Sc1cc(C(C)(C)C)c(O)c(C(C)(C)C)c1 | inactive |
| CCc1cc(C(N)=S)ccn1 | inactive |
| O=C(O)CCn1c2c(c3ccccc31)C[C@H](NS(=O)(=O)c1ccc(F)cc1)CC2 | inactive |
| C[C@]12C=CC(=O)C=C1CC[C@@H]1[C@@H]2C(=O)C[C@@]2(C)[C@H]1CC[C@]2(O)C(=O)CO | inactive |
| COc1c(N2CCNC(C)C2)c(F)cc2c(=O)c(C(=O)O)cn(C3CC3)c12 (stereo not given) | inactive |
| N[C@@H](Cc1ccc(O)c(O)c1)C(=O)O | inactive |
| Nc1nc(N)nc(-c2cc(Cl)ccc2Cl)n1 | inactive |
| COc1ccc(C(=O)CC(=O)c2ccc(C(C)(C)C)cc2)cc1 | inactive |
| CCC(C)(C)c1ccc(CC(C)CN2C[C@@H](C)O[C@@H](C)C2)cc1 (stereo not given in full) | inactive |
| COc1cccc(N(C)C(=S)Oc2ccc3c(c2)CCCC3)n1 | inactive |
| CN(C)CCc1c[nH]c2ccc(C[C@H]3COC(=O)N3)cc12 | inactive |
| NC(=O)N1c2ccccc2CC(=O)c2ccccc21 | inactive |
| CC(=O)CC(c1ccccc1)c1c(O)c2ccccc2oc1=O (stereo not given) | inactive |
| CCN(CC)CC#CCOC(=O)C(O)(c1ccccc1)C1CCCCC1 (stereo not given) | inactive |
| COc1cc(NS(=O)(=O)c2ccc(N)cc2)nc(OC)n1 | inactive |

* * *

molecules and their reported z-score
# experimental.details: qHTS for identification of novel therapeutic agents for treatment of microphthalmiaassociated transcription factor (MiT) renal cell carcinoma (RCC) (AID 1963991);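 also: curves scaled with 100% = DMSO viability and 0% = empty wells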
# protocol.conditions: TFE3-RCC viability, CellTiter-Glo, 48 h; measured here: UOK145 Z-AUC; stronger effect = lower value
Inconclusive results are not listed.
measure.name: z-score

| molecule | measure.name | result |
| --- | --- | --- |
| Clc1ccccc1CN1CCc2sccc2C1 | z-score | 0.692 |
| COc1ncnc(NS(=O)(=O)c2ccc(N)cc2)c1OC | z-score | 0.671 |
| CCN[C@H]1C[C@H](C)S(=O)(=O)c2sc(S(N)(=O)=O)cc21 | z-score | 0.605 |
| CC(C)(C#N)c1cc(Cn2cncn2)cc(C(C)(C)C#N)c1 | z-score | 0.487 |
| CC(=O)[C@H]1CC[C@H]2[C@@H]3CC=C4C[C@@H](O)CC[C@]4(C)[C@H]3CC[C@]12C | z-score | 0.375 |
| NC(=O)c1cccnc1 | z-score | -0.282 |
| CC(C)C[C@H](NC(=O)[C@H](CCc1ccccc1)NC(=O)CN1CCOCC1)C(=O)N[C@@H](Cc1ccccc1)C(=O)N[C@@H](CC(C)C)C(=O)[C@@]1(C)CO1 | z-score | -3.3 |
| CNS(=O)(=O)Cc1ccc2[nH]cc(CCN(C)C)c2c1 | z-score | 0.747 |
| CCN1CCCC1CNC(=O)c1cc(S(N)(=O)=O)ccc1OC (centres undefined) | z-score | 0.799 |
